- Test Protocol: Intra-pulmonary steady-state concentrations (plasma, ELF, alveolar cells) after multiple IV doses in healthy adult subjects
- Format: in vivo, human
- Assay Context: human, in vivo, mean concentration in epithelial lining fluid higher than in plasma
- Description: The remaining 20 subjects received tigecycline as 1 intravenous dose of 100 mg administered as a 30 minute infusion at t=0, followed by 6 intravenous doses of 50 mg administered as 30 minute infusions at t=12, 24, 36, 48, 60, and 72 hours. A study completion visit was conducted on the day following the final test article dose. […]
Reported Property: Kp

Given the entry CN(C)c1cc(CNCC(C)(C)C)c(O)c2c1C[C@H]1C[C@H]3C(N(C)C)C(O)=C(C(N)=O)C(=O)[C@@]3(O)C(O)=C1C2=O (stereo partly shown) , report its measured Kp.
≥ 0.4

====

- Test Protocol: Intra-pulmonary steady-state concentrations (plasma, ELF, alveolar cells) after multiple IV doses in healthy adult subjects
- Assay type: in vivo, human
- Assay Context: human, in vivo, Plasma concentration (mean ± SD)
Reported Property: concentration at 2 h (ng/mL)
Expressed in ng/mL, but write only the number.

Given the entry CN(C)c1cc(CNCC(C)(C)C)c(O)c2c1C[C@H]1C[C@H]3C(N(C)C)C(O)=C(C(N)=O)C(=O)[C@@]3(O)C(O)=C1C2=O (stereo partly shown) , report its measured concentration at 2 h.
930

====

- Test Protocol: Intra-pulmonary steady-state concentrations (plasma, ELF, alveolar cells) after multiple IV doses in healthy adult subjects
- Format: in vivo, human
- Assay Context: human, in vivo, Penetration ratio ELF:Plasma based on AUCmean
Reported Property: Kp
Quick one: just the number, no unit, thanks!

Given the entry CN(C)c1cc(CNCC(C)(C)C)c(O)c2c1C[C@H]1C[C@H]3C(N(C)C)C(O)=C(C(N)=O)C(=O)[C@@]3(O)C(O)=C1C2=O (stereo partly shown) , report its measured Kp.
1.47

====

- System: M. fortuitum group
- Test Protocol: MIC (CLSI broth dilution), RGM isolates
- Format: cell-based
- Assay Context: Mycolicibacterium fortuitum, isolate 30, M. fortuitum group, M. porcinum/M. boenickei; read-out: MIC
Exercise: state measured MIC for each of the compounds provided.
Expressed in µg/mL, but write only the number.

Form field - read-out: MIC; system: M. fortuitum group; submitted item: CN(C)c1cc(CNCC(C)(C)C)c(O)c2c1C[C@H]1C[C@H]3[C@H](N(C)C)C(O)=C(C(N)=O)C(=O)[C@@]3(O)C(O)=C1C2=O [OMC]
0.12

Form field - read-out: MIC; system: M. fortuitum group; submitted item: CN(C)c1ccc(O)c2c1C[C@H]1C[C@H]3[C@H](N(C)C)C(O)=C(C(N)=O)C(=O)[C@@]3(O)C(O)=C1C2=O [minocycline]
8

====

- Test Protocol: Intra-pulmonary steady-state concentrations (plasma, ELF, alveolar cells) after multiple IV doses in healthy adult subjects
- Format: in vivo, human
- Assay Context: human, in vivo, Alveolar Macrophages (AM) concentration (mean ± SD)
Reported Property: concentration at 8 h

Given the entry CN(C)c1cc(CNCC(C)(C)C)c(O)c2c1C[C@H]1C[C@H]3C(N(C)C)C(O)=C(C(N)=O)C(=O)[C@@]3(O)C(O)=C1C2=O (stereo partly shown) [Omadacycline] , report its measured concentration at 8 h.
12300 ng/mL

====

- Test Protocol: Intra-pulmonary steady-state concentrations (plasma, ELF, alveolar cells) after multiple IV doses in healthy adult subjects
- Type: in vivo, human
- Assay Context: human, in vivo, Epithelial lining fluid (ELF) concentration (mean ± SD)
Reported Property: concentration at 24 h (ng/mL)
Expressed in ng/mL, but write only the number.

Given the entry CN(C)c1cc(CNCC(C)(C)C)c(O)c2c1C[C@H]1C[C@H]3C(N(C)C)C(O)=C(C(N)=O)C(=O)[C@@]3(O)C(O)=C1C2=O (stereo partly shown) , report its measured concentration at 24 h.
410

====

- Test Protocol: Intra-pulmonary steady-state concentrations (plasma, ELF, alveolar cells) after multiple IV doses in healthy adult subjects
- Type: in vivo, human
- Assay Context: human, in vivo, AUCmedian, Epithelial Lining Fluid (ELF)
- Method: The remaining 20 subjects received tigecycline as 1 intravenous dose of 100 mg administered as a 30 minute infusion at t=0, followed by 6 intravenous doses of 50 mg administered as 30 minute infusions at t=12, 24, 36, 48, 60, and 72 hours. A study completion visit was conducted on the day following the final test article dose. […]
Reported Property: AUC (ng·h/mL)
Expressed in ng·h/mL, but write only the number.

Given the entry CN(C)c1cc(CNCC(C)(C)C)c(O)c2c1C[C@H]1C[C@H]3C(N(C)C)C(O)=C(C(N)=O)C(=O)[C@@]3(O)C(O)=C1C2=O (stereo partly shown) [Omadacycline] , report its measured AUC.
16700

====

- Test Protocol: Intra-pulmonary steady-state concentrations (plasma, ELF, alveolar cells) after multiple IV doses in healthy adult subjects
- Type: in vivo, human
- Assay Context: human, in vivo, Alveolar Macrophages (AM) concentration (mean ± SD)
Reported Property: concentration at 1 h

Given the entry CN(C)c1cc(CNCC(C)(C)C)c(O)c2c1C[C@H]1C[C@H]3C(N(C)C)C(O)=C(C(N)=O)C(=O)[C@@]3(O)C(O)=C1C2=O (stereo partly shown) [Omadacycline] , report its measured concentration at 1 h.
12800 ng/mL

====

Exercise: state measured MIC for each of the compounds provided.
- Tested on: M. smegmatis group
- Test Protocol: MIC (CLSI broth dilution), RGM isolates
- Format: cell-based
- Assay Context: Mycolicibacterium smegmatis, isolate 50, M. smegmatis group, M. wolinskyi; read-out: MIC
Expressed in µg/mL, but write only the number.

Given the entry CC(=O)NC[C@H]1CN(c2ccc(N3CCOCC3)c(F)c2)C(=O)O1 , report its measured MIC.
4

Given the entry CO[C@@]1(NC(=O)Cc2cccs2)C(=O)N2C(C(=O)O)=C(COC(N)=O)CS[C@@H]21 , report its measured MIC.
64

Given the entry CN(C)c1cc(CNCC(C)(C)C)c(O)c2c1C[C@H]1C[C@H]3[C@H](N(C)C)C(O)=C(C(N)=O)C(=O)[C@@]3(O)C(O)=C1C2=O , report its measured MIC.
0.5

Given the entry COc1c(N2C[C@@H]3CCCN[C@@H]3C2)c(F)cc2c(=O)c(C(=O)O)cn(C3CC3)c12 , report its measured MIC.
0.25

====

- Test Protocol: Intra-pulmonary steady-state concentrations (plasma, ELF, alveolar cells) after multiple IV doses in healthy adult subjects
- Format: in vivo, human
- Assay Context: human, in vivo, Epithelial lining fluid (ELF) concentration (mean ± SD)
Reported Property: concentration at 12 h (ng/mL)
Expressed in ng/mL, but write only the number.

Given the entry CN(C)c1cc(CNCC(C)(C)C)c(O)c2c1C[C@H]1C[C@H]3C(N(C)C)C(O)=C(C(N)=O)C(=O)[C@@]3(O)C(O)=C1C2=O (stereo partly shown) , report its measured concentration at 12 h.
610

====

- Test Protocol: Intra-pulmonary steady-state concentrations (plasma, ELF, alveolar cells) after multiple IV doses in healthy adult subjects
- Format: in vivo, human
- Assay Context: human, in vivo, Epithelial lining fluid (ELF) concentration (mean ± SD)
Reported Property: concentration at 8 h (ng/mL)
Expressed in ng/mL, but write only the number.

Given the entry CN(C)c1cc(CNCC(C)(C)C)c(O)c2c1C[C@H]1C[C@H]3C(N(C)C)C(O)=C(C(N)=O)C(=O)[C@@]3(O)C(O)=C1C2=O (stereo partly shown) [Omadacycline] , report its measured concentration at 8 h.
580

====

- System: M. abscessus complex
- Test Protocol: MIC (CLSI broth dilution), RGM isolates
- Type: cell-based
- Assay Context: Mycobacteroides abscessus, isolate 17, M. abscessus complex, erm gene type Type 8 abscessus; read-out: MIC
Reported Property: MIC

Form field - read-out: MIC; system: M. abscessus complex; submitted item: CO[C@@]1(NC(=O)Cc2cccs2)C(=O)N2C(C(=O)O)=C(COC(N)=O)CS[C@@H]21
32 µg/mL

Form field - read-out: MIC; system: M. abscessus complex; submitted item: COc1c(N2C[C@@H]3CCCN[C@@H]3C2)c(F)cc2c(=O)c(C(=O)O)cn(C3CC3)c12
4 µg/mL

Form field - read-out: MIC; system: M. abscessus complex; submitted item: CN(C)c1ccc(O)c2c1C[C@H]1C[C@H]3[C@H](N(C)C)C(O)=C(C(N)=O)C(=O)[C@@]3(O)C(O)=C1C2=O
4 µg/mL

Form field - read-out: MIC; system: M. abscessus complex; submitted item: CN(C)c1cc(CNCC(C)(C)C)c(O)c2c1C[C@H]1C[C@H]3[C@H](N(C)C)C(O)=C(C(N)=O)C(=O)[C@@]3(O)C(O)=C1C2=O
0.06 µg/mL

Form field - read-out: MIC; system: M. abscessus complex; submitted item: CC(=O)NC[C@H]1CN(c2ccc(N3CCOCC3)c(F)c2)C(=O)O1
16 µg/mL
